Please go through the items and note down their IC50.
- TARGET_DESC: KRAS G12C (Homo sapiens, UniProt P01116, G12C)
- Sequence (P01116 1-188 isoform P01116-2 G12C): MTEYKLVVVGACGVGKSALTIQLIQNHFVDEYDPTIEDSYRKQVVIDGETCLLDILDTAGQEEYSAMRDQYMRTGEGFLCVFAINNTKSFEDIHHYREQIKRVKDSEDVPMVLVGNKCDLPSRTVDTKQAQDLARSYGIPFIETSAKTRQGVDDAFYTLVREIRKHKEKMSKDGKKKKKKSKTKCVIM
- PROCEDURE_SUMMARY: Cell Activity Assay: accumulation of GDP-bound KRAS G12C in MIAPaCa-2 cells (Raf-1 RBD capture, MSD readout)
- Format: cell-based
- Parameters: endogenous in cells; host or cells: MIAPaCa-2
- EXPERIMENTAL_SETUP: 6 hours, assay limit is 30.00
Please reply with the bare figure in µM and do not write the unit itself.

input: What measured IC50 goes with C=CC(=O)N1CCN(c2nc(NCc3nc(C)c[nH]3)nc3c(Oc4c(C)ccc5[nH]ncc45)cccc23)CC1 [Example 01F] ?
output: 9.34

input: What measured IC50 goes with C=CC(=O)N1CCN(c2nc(OCc3cscn3)nc3c(Oc4c(C)ccc5[nH]ncc45)nccc23)CC1 [Example 22F] ?
output: 0.535

input: What measured IC50 goes with C=CC(=O)N1CCN(c2nc(O[C@@H]3CN(C)C[C@H]3OC)nc3c(Oc4c(Cl)c(F)cc5[nH]ncc45)nccc23)C[C@H]1C [Example 35I] ?
output: 0.155

input: What measured IC50 goes with C=CC(=O)N1CCN(c2nc(O[C@@H]3CN(C)C[C@H]3CC)nc3c(Oc4c(Cl)c(F)cc5[nH]ncc45)nc(Cl)cc23)CC1 (racemic) [Example 28G] ?
output: 0.037

input: What measured IC50 goes with C=CC(=O)N1CCN(c2nc(NCCN3CCN(C)CC3)nc3c(Oc4c(C)ccc5[nH]ncc45)cccc23)CC1 [Example 19F] ?
output: 3.7

input: What measured IC50 goes with C=CC(=O)N1CCN(c2ncnc3c(Oc4c(Cl)c(F)cc5[nH]ncc45)nc(Cl)cc23)C[C@H]1C [Example 37A] ?
output: 0.622

input: What measured IC50 goes with C=CC(=O)N1CCN(c2ncnc3c(Cc4c(C)ccc5[nH]ncc45)nccc23)CC1 [Example 02D] ?
output: 4.66

input: What measured IC50 goes with C=CC(=O)N1CCN(c2nc(OC[C@H]3CN(C)C[C@@H]3OC)nc3c(Oc4c(Cl)c(F)cc5[nH]ncc45)nc(Cl)cc23)CC1 [Example 18G] ?
output: 0.034

input: What measured IC50 goes with C=CC(=O)N1CCN(c2ncnc3c(Oc4c(Cl)c(F)cc5[nH]ncc45)nc(N)cc23)CC1 [Example 41A] ?
output: 3.5

input: What measured IC50 goes with C=CC(=O)N1CCN(c2ncnc3c(Oc4c(C)ccc5[nH]ncc45)cc(Cl)cc23)CC1 [Example 12C] ?
output: 3.91

input: What measured IC50 goes with C=CC(=O)N1CCN(c2nc(OC[C@@H]3CCC(=O)N3)nc3c(Oc4c(C)ccc5[nH]ncc45)cccc23)CC1 [Example 11F] ?
output: 8.14

input: What measured IC50 goes with C=CC(=O)N1CCN(c2nc(Oc3cccnc3C)nc3c(Oc4c(Cl)c(F)cc5[nH]ncc45)nccc23)CC1 [Example 14I] ?
output: 0.366

input: What measured IC50 goes with C=CC(=O)N1CCN(c2ncnc3c(Oc4c(Cl)c(F)cc5[nH]ncc45)nccc23)C[C@@H]1C [Example 26A] ?
output: 27.6

input: What measured IC50 goes with C=CC(=O)N1CCN(c2nc(Oc3cccnc3CC)nc3c(Oc4c(Cl)c(F)cc5[nH]ncc45)nccc23)CC1 [Example 03I] ?
output: 0.06

input: What measured IC50 goes with C=CC(=O)N1CCN(c2nc(Oc3cccnc3C(F)(F)F)nc3c(Oc4c(Cl)c(F)cc5[nH]ncc45)nccc23)CC1 [Example 07I] ?
output: 0.331

input: What measured IC50 goes with C=CC(=O)N1CCN(c2nc(OC[C@H]3CCCN3C)nc3c(Oc4c(C)ccc5[nH]ncc45)cccc23)CC1 [Example 06E] ?
output: 0.585

input: What measured IC50 goes with C=CC(=O)N1CCN(c2nc(O[C@@H]3CN(C)C[C@H]3OC)nc3c(Oc4c(Cl)c(Cl)cc5[nH]ncc45)nc(Cl)cc23)CC1 [Example 29G] ?
output: 0.005

input: What measured IC50 goes with C=CC(=O)N1CCN(c2nc(O[C@@H]3CN(C)C[C@H]3OC)nc3c(Oc4c(Cl)ccc5[nH]ncc45)nc(Cl)cc23)CC1 [Example 38G] ?
output: 0.021

input: What measured IC50 goes with C=CC(=O)N1CCN(c2ncnc3c(Oc4c(F)c(C)c(F)c5[nH]ncc45)nccc23)CC1 [Example 16A] ?
output: 29.6

input: What measured IC50 goes with C=CS(=O)(=O)N1CCN(c2ncnc3c(Oc4c(Cl)c(C)cc5[nH]ncc45)nccc23)CC1 [Example 04] ?
output: 11.7

input: What measured IC50 goes with C=CC(=O)N1CCN(c2nc(Oc3cccc4c3CCN(CC)C4)nc3c(Oc4c(C)ccc5[nH]ncc45)nccc23)CC1 [Example 31I] ?
output: 0.041

input: What measured IC50 goes with C=CC(=O)N1CCN(c2nc(O[C@@H]3CN(C)CC[C@H]3C)nc3c(Oc4c(Cl)c(F)cc5[nH]ncc45)nccc23)CC1 (racemic) [Example 53I] ?
output: 0.059

input: What measured IC50 goes with C=CC(=O)N1CCN(c2ncnc3c(Oc4c(Cl)c(C)cc5[nH]ncc45)nccc23)CC1 [Example 11A] ?
output: 0.892

input: What measured IC50 goes with C=CC(=O)N1CCN(c2nc(Oc3cccc4c3CCN(C)C4)nc3c(Oc4c(C)ccc5[nH]ncc45)nccc23)CC1 [Example 38I] ?
output: 0.055

input: What measured IC50 goes with C=CC(=O)N1CCN(c2nc(OCCN(C)C)nc3c(Oc4c(C)ccc5[nH]ncc45)cccc23)CC1 [Example 03E] ?
output: 1.44

input: What measured IC50 goes with C=CC(=O)N1CCN(c2nc(OC[C@@H]3CCCN3C)nc3c(Oc4c(C)c(Cl)cc5[nH]ncc45)nc(Cl)cc23)CC1 [Example 10G] ?
output: 0.071
